System: HCT-116
assay-text: MTT antiproliferative assay
settings: Homo sapiens, HCT-116, 24 h, read-out: IC50 HCT-116
readout-name: pIC50
Please report pIC50 as the negative decimal logarithm of the molar concentration, giving only the number.

COc1cc2c(cc1OC)C1N(CC2)C(C(=O)C=Cc2cn(-c3ccccc3)nc2-c2ccccc2)=NN1c1ccc(C)cc1 (stereo not shown) [Compound 3b]; 5.03
COc1cc2c(cc1OC)C1N(CC2)C(C(=O)C=Cc2cn(-c3ccccc3)nc2-c2ccccc2)=NN1c1ccc(Br)cc1 (stereo not shown) [Compound 3e]; 4.83
COc1cc2c(cc1OC)C1N(CC2)C(C(=O)C=Cc2cn(-c3ccccc3)nc2-c2ccccc2)=NN1c1ccc([N+](=O)[O-])cc1 (stereo not shown) [Compound 3f]; 5.34

Then this compound:
## Task pIC50 lookup needed for COc1ccc(N2N=C(C(=O)C=Cc3cn(-c4ccccc4)nc3-c3ccccc3)N3CCc4cc(OC)c(OC)cc4C32)cc1 (stereo not shown) [Compound 3c] , thanks.
## Result 5.27

----------
A collection of compounds and their measured IC50
Tested on: HCT-116
assay-text: MTT antiproliferative assay
settings: Homo sapiens, HCT-116, 24 h, read-out: IC50 HCT-116
# number then unit; no other words

COc1cc2c(cc1OC)C1N(CC2)C(C(=O)C=Cc2cn(-c3ccccc3)nc2-c2ccccc2)=NN1c1ccc(Cl)cc1 (stereo not shown); 14.1 µM
O=c1[nH]cc(F)c(=O)[nH]1 [Compound 5-FU, 5-fluorouracil, reference compound]; 171 µM
COc1cc2c(cc1OC)C1N(CC2)C(C(=O)C=Cc2cn(-c3ccccc3)nc2-c2ccccc2)=NN1c1ccccc1 (stereo not shown); 8.15 µM

Then this compound:
## Task IC50 lookup needed for CS(=O)(=O)CCNCc1ccc(-c2ccc3ncnc(Nc4ccc(OCc5cccc(F)c5)c(Cl)c4)c3c2)o1 [Lapatinib, reference compound] , thanks.
## Result 5.92 µM

----------
Tested on: WI-38
assay-text: MTT assay on normal lung cell line
settings: Homo sapiens, WI-38, 24 h, read-out: IC50 WI-38
Hi! Could you tag entries with IC50 below 900 µM as y, and those at or above as n? Much appreciated.

## Task # strict comparison: is reported IC50 < 900 µM? input = COc1cc2c(cc1OC)C1N(CC2)C(C(=O)C=Cc2cn(-c3ccccc3)nc2-c2ccccc2)=NN1c1ccc(C)cc1 (stereo not drawn)
## Result y

## Task # strict comparison: is reported IC50 < 900 µM? input = COc1cc2c(cc1OC)C1N(CC2)C(C(=O)C=Cc2cn(-c3ccccc3)nc2-c2ccccc2)=NN1c1ccc(Cl)cc1 (stereo not drawn)
## Result y

## Task # strict comparison: is reported IC50 < 900 µM? input = O=c1[nH]cc(F)c(=O)[nH]1 [Compound 5-FU, 5-fluorouracil, reference compound]
## Result y

----------
assayed-system: total EGFR (Homo sapiens, UniProt P00533)
Construct: endogenous in cells
Sequence (P00533 25-1210): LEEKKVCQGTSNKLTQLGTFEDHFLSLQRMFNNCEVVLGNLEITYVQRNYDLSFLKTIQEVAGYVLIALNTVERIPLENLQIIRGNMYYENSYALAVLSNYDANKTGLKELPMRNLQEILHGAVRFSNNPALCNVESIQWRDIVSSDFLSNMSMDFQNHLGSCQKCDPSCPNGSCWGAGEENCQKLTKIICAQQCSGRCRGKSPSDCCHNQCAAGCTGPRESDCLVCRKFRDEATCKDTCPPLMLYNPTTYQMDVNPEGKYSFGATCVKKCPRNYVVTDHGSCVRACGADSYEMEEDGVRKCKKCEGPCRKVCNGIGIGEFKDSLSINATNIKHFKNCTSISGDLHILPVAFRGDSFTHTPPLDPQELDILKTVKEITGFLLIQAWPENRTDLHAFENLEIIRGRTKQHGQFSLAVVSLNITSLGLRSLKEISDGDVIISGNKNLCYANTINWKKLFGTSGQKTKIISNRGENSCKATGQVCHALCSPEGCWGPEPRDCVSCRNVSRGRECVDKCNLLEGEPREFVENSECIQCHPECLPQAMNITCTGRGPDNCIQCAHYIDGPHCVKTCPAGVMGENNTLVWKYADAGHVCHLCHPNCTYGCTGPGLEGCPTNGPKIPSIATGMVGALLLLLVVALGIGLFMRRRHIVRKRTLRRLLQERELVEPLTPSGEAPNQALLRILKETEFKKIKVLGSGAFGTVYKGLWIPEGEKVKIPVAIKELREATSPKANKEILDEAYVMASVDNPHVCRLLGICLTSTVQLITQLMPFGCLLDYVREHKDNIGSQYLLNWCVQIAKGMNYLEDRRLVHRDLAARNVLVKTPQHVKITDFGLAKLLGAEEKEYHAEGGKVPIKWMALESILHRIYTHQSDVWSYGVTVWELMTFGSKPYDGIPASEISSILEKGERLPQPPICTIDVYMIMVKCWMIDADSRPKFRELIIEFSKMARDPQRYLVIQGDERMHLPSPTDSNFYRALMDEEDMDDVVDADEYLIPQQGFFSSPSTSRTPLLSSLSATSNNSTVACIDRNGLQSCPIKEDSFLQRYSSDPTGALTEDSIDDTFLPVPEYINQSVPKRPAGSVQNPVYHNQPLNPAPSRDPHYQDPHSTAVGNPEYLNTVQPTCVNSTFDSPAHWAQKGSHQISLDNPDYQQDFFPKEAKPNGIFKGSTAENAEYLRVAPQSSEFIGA
assay-text: EGFR inhibition assay on A549 cells (cloud clone SEA757Hu kit)
settings: total EGFR, A549 cells
Hi! Could you tag entries with IC50 below 70 nM as criterion met, and those at or above as criterion not met? Much appreciated.

As a guide, the following entries are already answered.
COc1cc2c(cc1OC)C1N(CC2)C(C(=O)C=Cc2cn(-c3ccccc3)nc2-c2ccccc2)=NN1c1ccc(Cl)cc1 (centres unmarked) [Compound 3d]; criterion met
COc1cc2c(cc1OC)C1N(CC2)C(C(=O)C=Cc2cn(-c3ccccc3)nc2-c2ccccc2)=NN1c1ccc(C)cc1 (centres unmarked) [Compound 3b]; criterion not met
COc1cc2c(cc1OC)C1N(CC2)C(C(=O)C=Cc2cn(-c3ccccc3)nc2-c2ccccc2)=NN1c1ccccc1 (centres unmarked) [Compound 3a]; criterion not met
COc1cc2c(cc1OC)C1N(CC2)C(C(=O)C=Cc2cn(-c3ccccc3)nc2-c2ccccc2)=NN1c1ccc([N+](=O)[O-])cc1 (centres unmarked) [Compound 3f]; criterion met

// next entry
## Task # strict comparison: is reported IC50 < 70 nM? input = COc1ccc(N2N=C(C(=O)C=Cc3cn(-c4ccccc4)nc3-c3ccccc3)N3CCc4cc(OC)c(OC)cc4C32)cc1 (centres unmarked) [Compound 3c]
## Result criterion met
